test system: Trichomonas vaginalis; assay: Antiparasitic activity against Trichomonas vaginalis T1 at […] after 24 hrs by hemocytometric analysis; assay type: functional
Here the recorded growth inhibition (GI) is given for each entry.
endpoint: growth inhibition (GI) (%)

>>> reading("Nc1ncnc2c1ncn2[C@@H]1O[C@H](/C=C\\I)[C@@H](O)[C@H]1O")
81
>>> reading("Nc1ncnc2c1ncn2[C@@H]1C[C@H](CO)[C@@H](O)[C@H]1O")
95
>>> reading("O[C@@H]1[C@H](O)[C@@H](C=CF)O[C@H]1n1cnc2c(NC3CC3)ncnc21")
10
>>> reading("Nc1ncnc2c1ncn2[C@@H]1O[C@H](C(=O)O)[C@@H](O)[C@H]1O")
17
>>> reading("Nc1ncnc2c1ncn2CCC(O)CO (stereo not given)")
11
>>> reading("COC(=O)[C@H]1O[C@@H](n2cnc3c(N)ncnc32)[C@H](O)[C@@H]1O")
4
>>> reading("O[C@@H]1[C@H](O)[C@@H](C=CI)O[C@H]1n1cnc2c(NC3CC3)ncnc21")
24
>>> reading("Nc1ncnc2c1ncn2[C@@H]1O[C@H](/C=C/I)[C@@H](O)[C@H]1O")
85
>>> reading("Nc1ncnc2c1ncn2[C@@H]1C[C@H](C(=O)O)[C@@H](O)[C@H]1O")
36
>>> reading("Nc1ncnc2c1ncn2[C@@H]1O[C@H](/C=C/CCCC(=O)O)[C@@H](O)[C@H]1O")
22
